Origin of measurements: the supplement of paper PMC11208160

# method.description: recombinant barcode read abundance after kanamycin selection (control-corrected) (log10(CPM+1)); higher = more efficient recombination; sequences stand for … in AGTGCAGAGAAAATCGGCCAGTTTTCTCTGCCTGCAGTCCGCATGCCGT…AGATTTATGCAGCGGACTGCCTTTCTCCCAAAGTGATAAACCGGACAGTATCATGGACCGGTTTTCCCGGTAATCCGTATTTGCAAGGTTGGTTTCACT; site = the 11-nt target
Items are presented alongside their recorded recombinant barcode read abundance (log10).
metric: recombinant barcode read abundance (log10)

# item.sequence, value.observed
data = [
    ("AGTAACCCTTGGGTTCTAACCTGTTGCCT (site ATTAACCCTAG)", 0.137),
    ("GTCCACTCTTGGGTTCTAACCTGTTGCAC (site GTCCACTCTGT)", 2.21),
    ("AAGCGAACTTGGGTTCTAACCTGTTGCCT (site AAGCAAACTAG)", 0.274),
    ("GGGATGGCTTGGGTTCTAACCTGTTGCCT (site TGGATGGCTAG)", 0.0489),
    ("TCCGAGACTTGGGTTCTAACCTGTTGCCG (site TCCGAGACTAG)", 0.541),
    ("CGGCCTACTTGGGTTCTAACCTGTTGCTT (site CGGCCTACTAA)", 0.659),
    ("TAGTGGCCTTGGGTTCTAACCTGTTGCCA (site TAGTGGACTTG)", 0.095),
    ("TGGTATCCTTGGGTTCTAACCTGTTGCCT (site TGGTATCCTAG)", 0.954),
    ("ATCCTAGCTTGGGTTCTAACCTGTTGCCG (site TTCCTAGCTTG)", 0.299),
    ("GTCATGGCTTGGGTTCTAACCTGTTGCCT (site GTCAGGGCTAG)", 0.0945),
    ("GTAAATCCTTGGGTTCTAACCTGTTGCCT (site ATAAATCCTAG)", 0.141),
    ("ATGTGCTCTTGGGTTCTAACCTGTTGCCT (site AAGTGCTCTAG)", 0.204),
    ("TTCACACCTTGGGTTCTAACCTGTTGCCT (site TTCACAGCTAG)", 0.00569),
    ("CTTCGCCCTTGGGTTCTAACCTGTTGCTT (site CTTCGCCCTAA)", 0.109),
    ("GTGAGGTCTTGGGTTCTAACCTGTTGCGT (site GTGAGGTCTAG)", 0.586),
    ("TAGTGCTCTTGGGTTCTAACCTGTTGCCT (site TAGTGCTCTAG)", 1.12),
    ("TGGCCCTCTTGGGTTCTAACCTGTTGCTT (site TGGCCCTCTGA)", 0.52),
    ("ATACTAACTTGGGTTCTAACCTGTTGCCT (site ATACTAACTAG)", 1.7),
    ("TACCGGTCTTGGGTTCTAACCTGTTGCTT (site TACCGGTCTAA)", 1.46),
]

----------
# method.description: recombinant UMI read abundance after kanamycin selection (control-corrected) (log10(CPM+1)); higher = more efficient recombination; extreme values may be limits of the assay; sequences stand for … in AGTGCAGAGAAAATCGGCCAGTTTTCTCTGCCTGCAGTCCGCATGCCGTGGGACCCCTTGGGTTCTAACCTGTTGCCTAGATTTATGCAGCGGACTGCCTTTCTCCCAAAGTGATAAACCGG…AGGTTGGTTTCACT; site = the 11-nt donor
Items are presented alongside their recorded recombinant UMI read abundance (log10).
metric: recombinant UMI read abundance (log10)

# item.sequence, value.observed
measured = [
    ("CGGACAGCATGGACCGGTTTTCCCGGTAATCCGTATTTGCT (site CGGACAACTAG)", 0.393),
    ("GTGGAGCCATGGACCGGTTTTCCCGGTAATCCGTATTTGAT (site GTGGAGCCTAT)", 0.00342),
    ("TTTCTACCATGGACCGGTTTTCCCGGTAATCCGTATTTGGG (site TTTCTACCTCC)", 0.00805),
    ("CCCGGTGCATGGACCGGTTTTCCCGGTAATCCGTATTTGAT (site CCTGGTGCTAT)", 0.00284),
    ("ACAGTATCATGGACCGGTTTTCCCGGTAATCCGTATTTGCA (site ACCATATCTTG)", 1.91),
    ("CTCCTACCATGGACCGGTTTTCCCGGTAATCCGTATTTGCT (site CTCCTACCTAG)", 0),
    ("TTAGAATCATGGACCGGTTTTCCCGGTAATCCGTATTTGAC (site TTAGAATCTGT)", 1.48),
]
